# Tested on: CCD-18Co
# procedure summary: Antiproliferative activity against human CCD-18Co cells assessed as reduction in cell growth incubated for 48 hrs by SRB assay
# Type: cell-based
pIC50: −log10 of the molar value.
quantity measured: pIC50

For reference, reported pIC50 for CCCCCCCCCCCCCC[C@H](O)[C@@H](N)Cc1ccc(OC)cc1 stands at < 5.00

----------
# Tested on: HT-29
# procedure summary: Antiproliferative activity against human HT-29 cells assessed as reduction in cell growth at 10 uM incubated for 48 hrs by SRB assay relative to control
# Format: functional
Give measured inhibition at 10 µM for each item. Keep answers brief.
Expressed in %, but write only the number.

GET /value?item= CCCCCCCCCCCCCC[C@H](O)[C@H](CO[Si](c1ccccc1)(c1ccccc1)C(C)(C)C)NC(=O)OC(C)(C)C &field=inhibition at 10 µM returns -14.4

inhibition at 10 µM measured on CCCCCCCCCCCCCC[C@H](O)[C@@H](N)Cc1ccc(OC)cc1 = 97.7

The reported value for CCCCCCCCCCCCCC[C@H](OCOC)[C@H](CN(CC)CC)NC(=O)OC(C)(C)C in terms of inhibition at 10 µM is -3.21

response.value for CCCCCCCCCCCCCC[C@H](OCOC)[C@H](CN(CCCC)CCCC)NC(=O)OC(C)(C)C (field: inhibition at 10 µM) = 15

Recorded inhibition at 10 µM (compound CCCCCCCCCCCCCC[C@H](OCOC)[C@H](CO)NC(=O)OC(C)(C)C ): 22

// sample CCCCCCCCCCCCCC[C@H](O)[C@H](CN1CCSCC1)NC(=O)OC(C)(C)C , its inhibition at 10 µM was 12

// CCCCCCCCCCCCCC[C@H](O)[C@H](CN(C(C)C)C(C)C)NC(=O)OC(C)(C)C : inhibition at 10 µM value = 11.6

src = ChEMBL document CHEMBL4680153
